Property: inhibition at 10 µM; scope: individual compounds
- Test system: OVCAR-4
- ASSAY_OVERVIEW: NCI-60 single-dose screen
- Type: cell-based
- TEST_SETTINGS: Homo sapiens; OVCAR-4, 10^–5 M; read-out: GI (%)
- Text: In the next step, all synthesized compounds were electronically submitted and accepted for testing to the National Cancer Institute (NCI) platform, for the single dose (10^−5 M) screening against a panel of 60 human tumor cell lines, representing leukemia, melanoma, and cancers of the lung, colon, central nervous system, ovary, kidney, prostate, and breast. The results are summarized in Table 2, with the best values highlighted in red (Figures S1–S14).
Give a bare numeral; the unit % is implied.

Here's what some known entries look like.
COMPOUND	UNIT_OF_MEASURE	inhibition at 10 µM
O=C1C(Nc2ccc(I)cc2)=CC(c2ccc(O)c(O)c2)N1c1ccc(I)cc1 (centres unmarked) [3h]	%	100
O=C1C(Nc2ccc(I)cc2)=CC(c2ccc(C(F)(F)F)cc2)N1c1ccc(I)cc1 (centres unmarked) [3e]	%	100
O=C1C(Nc2ccc(I)cc2)=CC(c2ccc(O)cc2)N1c1ccc(I)cc1 (centres unmarked) [3g]	%	85
O=C1C(Nc2ccc(I)cc2)=CC(c2ccco2)N1c1ccc(I)cc1 (centres unmarked) [3m]	%	0
O=C1C(Nc2ccc(I)cc2)=CC(c2ccc(Cl)cc2)N1c1ccc(I)cc1 (centres unmarked) [3c]	%	34
COc1ccc(C2C=C(Nc3ccc(I)cc3)C(=O)N2c2ccc(I)cc2)cc1OC (centres unmarked) [3j]	%	0

Lookup: Requested read-out inhibition at 10 µM, target or system OVCAR-4, entry COc1cc(OC)c(C2C=C(Nc3ccc(I)cc3)C(=O)N2c2ccc(I)cc2)cc1OC (centres unmarked) [3k]
Found: 3

Lookup: Note, next up: O=C1C(Nc2ccc(I)cc2)=CC(c2cc(C(F)(F)F)cc(C(F)(F)F)c2)N1c1ccc(I)cc1 (centres unmarked) [3f]
Found: 69

Lookup: Note, next up: O=C1C(Nc2ccc(I)cc2)=CC(c2ccc(Br)cc2)N1c1ccc(I)cc1 (centres unmarked) [3d]
Found: 30

Lookup: Note, next up: N#Cc1ccc(C2C=C(Nc3ccc(I)cc3)C(=O)N2c2ccc(I)cc2)cc1 (centres unmarked) [3l]
Found: 100

Lookup: Note, next up: O=C1C(Nc2ccc(I)cc2)=CC(c2ccccc2)N1c1ccc(I)cc1 (centres unmarked) [3a]
Found: 20

Lookup: Note, next up: O=C1C(Nc2ccc(I)cc2)=CC(c2ccc(F)cc2)N1c1ccc(I)cc1 (centres unmarked) [3b]
Found: 38

Lookup: Note, next up: O=C1C(Nc2ccc(I)cc2)=CC(c2ccc3c(c2)OCO3)N1c1ccc(I)cc1 (centres unmarked) [3n]
Found: 14

Lookup: Note, next up: COc1ccccc1C1C=C(Nc2ccc(I)cc2)C(=O)N1c1ccc(I)cc1 (centres unmarked) [3i]
Found: 60
